Molecular target: T1, Mex67ΔUBA L263D+M265D;Mtr2 (Saccharomyces cerevisiae;Saccharomyces …, UniProt Q99257;P34232 1-487;1-184, L263D;M265D|)
T1 sequence 1: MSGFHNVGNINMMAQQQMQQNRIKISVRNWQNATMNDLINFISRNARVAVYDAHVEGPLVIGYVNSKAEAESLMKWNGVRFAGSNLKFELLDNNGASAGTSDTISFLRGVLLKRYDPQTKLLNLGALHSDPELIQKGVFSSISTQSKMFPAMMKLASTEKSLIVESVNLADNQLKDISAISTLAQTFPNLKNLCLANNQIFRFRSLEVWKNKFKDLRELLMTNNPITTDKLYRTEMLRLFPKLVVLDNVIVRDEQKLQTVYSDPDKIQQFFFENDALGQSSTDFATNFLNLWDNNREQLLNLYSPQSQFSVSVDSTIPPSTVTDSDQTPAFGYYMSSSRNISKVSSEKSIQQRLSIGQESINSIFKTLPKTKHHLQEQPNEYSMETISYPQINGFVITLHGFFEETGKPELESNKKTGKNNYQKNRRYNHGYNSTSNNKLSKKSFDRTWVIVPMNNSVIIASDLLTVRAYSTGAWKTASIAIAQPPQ
T1 sequence 2: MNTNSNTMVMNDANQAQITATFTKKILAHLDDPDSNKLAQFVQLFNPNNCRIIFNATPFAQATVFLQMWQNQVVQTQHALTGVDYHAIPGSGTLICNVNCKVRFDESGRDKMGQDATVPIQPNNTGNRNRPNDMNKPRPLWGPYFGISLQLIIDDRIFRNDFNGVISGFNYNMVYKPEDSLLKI
Test: fluorescence anisotropy; 20 mM Tris pH 8.0, 50 mM NaCl, 10 nM DY-547 RNA; temperature not stated
Conditions: protein: recombinant;recombinant; tags: His6 removed by TEV;; copies: 1;1
experimental.readout: Kd (nM)
# value in nM; strip the unit string

q: Query (binder): AAAAAAAAAAAAAAA (ssRNA) [A15] ; field requested: Kd
a: 820
